Measured values drawn from patent EP4140481A1 for this set.

Please respond with reported viability at 10 µM for every item in the list.
test system: STHdh 111/111 striatal cells; assay: Cell viability after heat shock (CellTiter Glo); settings: Mus musculus, 48 h, read-out: Cell Viability striatal cells 3h heat shocked
Give a bare numeral; the unit % is implied.

Q) Reported viability at 10 µM for CC(C)N(CCNC(=O)c1ccc2[nH]c3c(c2c1)CCCC3)C(C)C [Compound 34] : what is it?
A) 60

Q) Reported viability at 10 µM for Cc1[nH]c2ccc(C(=O)NCCN(C)C3CCCC3)cc2c1C [Compound 55] : what is it?
A) 67

Q) Reported viability at 10 µM for CCc1[nH]c2ccc(C(=O)NCCN3CCN(C)CC3)cc2c1C [Compound 9] : what is it?
A) 88

Q) Reported viability at 10 µM for Cc1c(C)n(C)c2ccc(C(=O)NCCN(C(C)C)C(C)C)cc12 [Compound 39] : what is it?
A) 117
